experiment: Selectivity index, ratio of CC50 for human HepG2(2.2.15) cells to IC50 for HBV by viral DNA replication detection assay; format: functional
# Ratio CC50/IC50 per entry
Endpoint Label: Ratio CC50/IC50

CC1(C)[C@@H](O)CC[C@]2(C)[C@H]3C(=O)C=C4[C@@H]5C[C@@](C)(C(=O)OCc6ccc(S(C)(=O)=O)cc6)CC[C@]5(C)CC[C@@]4(C)[C@]3(C)CC[C@@H]12: 48.3
CC1(C)[C@@H](O)CC[C@]2(C)[C@H]3C(=O)C=C4[C@@H]5C[C@@](C)(C(=O)O)CC[C@]5(C)CC[C@@]4(C)[C@]3(C)CC[C@@H]12 [ENOXOLONE]: 1.4
CC1(C)[C@@H](O)CC[C@]2(C)[C@H]3CC=C4[C@@H]5C[C@@](C)(C(=O)O)CC[C@]5(C)CC[C@@]4(C)[C@]3(C)CC[C@@H]12: 3.4
CC1(C)[C@@H](O)CC[C@]2(C)[C@H]3C(=O)C=C4[C@@H]5C[C@@](C)(C(=O)OCCO)CC[C@]5(C)CC[C@@]4(C)[C@]3(C)CC[C@@H]12: 1.3
CC1(C)[C@@H](O)CC[C@]2(C)[C@H]3C(=O)C=C4[C@@H]5C[C@@](C)(C(=O)OC6CCC6)CC[C@]5(C)CC[C@@]4(C)[C@]3(C)CC[C@@H]12: 8.3
CCCCCCOC(=O)[C@@]1(C)CC[C@]2(C)CC[C@]3(C)C(=CC(=O)[C@@H]4[C@@]5(C)CC[C@H](O)C(C)(C)[C@@H]5CC[C@]43C)[C@@H]2C1: 2.6
CC1(C)[C@@H](O)CC[C@]2(C)[C@H]3C(=O)C=C4[C@@H]5C[C@@](C)(C(=O)OCCCCCCCCO)CC[C@]5(C)CC[C@@]4(C)[C@]3(C)CC[C@@H]12: 11.9
